Data origin: patent US7718767B2

# Tested on: human hepatoma cell line ET
# assay notes: Cytotoxicity in the replicon cell line, colorimetric assay of cell numbers
# experimental setup: read-out: Cytotoxicity IC50; ET cells, 72 h; concentration inhibiting cell viability by 50%
reported metric: IC50 (µM)

C/C=C/C[C@@H](C)[C@@H](O)[C@H]1C(=O)N[C@@H](CC)C(=O)N(C)[C@H](OC(C)C)C(=O)N(C)[C@@H](CC(C)C)C(=O)N[C@@H](C(C)C)C(=O)N(C)[C@@H](CC(C)C)C(=O)N[C@@H](C)C(=O)N[C@H](C)C(=O)N(C)[C@@H](CC(C)C)C(=O)N(C)[C@@H](CC(C)C)C(=O)N(C)[C@@H](C(C)C)C(=O)N1C : 17.2
C/C=C/C[C@@H](C)[C@@H](O)[C@H]1C(=O)N[C@@H](CC)C(=O)N(C)[C@H](SCCN(C)C)C(=O)N(C)[C@@H](CC(C)(C)O)C(=O)N[C@@H](C(C)C)C(=O)N(C)[C@@H](CC(C)C)C(=O)N[C@@H](C)C(=O)N[C@H](C)C(=O)N(C)[C@@H](CC(C)C)C(=O)N(C)[C@@H](CC(C)C)C(=O)N(C)[C@@H](C(C)C)C(=O)N1C : 13.4

###

# Test system: human hepatoma cell line ET
# assay notes: Cytotoxicity in the replicon cell line, colorimetric assay of cell numbers
# experimental setup: read-out: Cytotoxicity IC50; ET cells, 72 h; concentration inhibiting cell viability by 50%
reported metric: IC50

C/C=C/C[C@@H](C)[C@@H](O)[C@H]1C(=O)N[C@@H](CC)C(=O)N(C)C(OCCOC)C(=O)N(C)[C@@H](CC(C)(C)O)C(=O)N[C@@H](C(C)C)C(=O)N(C)[C@@H](CC(C)C)C(=O)N[C@@H](C)C(=O)N[C@H](C)C(=O)N(C)[C@@H](CC(C)C)C(=O)N(C)[C@@H](CC(C)C)C(=O)N(C)[C@@H](C(C)C)C(=O)N1C (some centres unmarked) : > 2 µM
C/C=C/C[C@@H](C)[C@@H](O)[C@H]1C(=O)N[C@@H](CC)C(=O)N(C)[C@H](OCCCOC)C(=O)N(C)[C@@H](CC(C)(C)O)C(=O)N[C@@H](C(C)C)C(=O)N(C)[C@@H](CC(C)C)C(=O)N[C@@H](C)C(=O)N[C@H](C)C(=O)N(C)[C@@H](CC(C)C)C(=O)N(C)[C@@H](CC(C)C)C(=O)N(C)[C@@H](C(C)C)C(=O)N1C : > 2 µM

###

# Tested on: human hepatoma cell line ET
# assay notes: Cytotoxicity in the replicon cell line, colorimetric assay of cell numbers
# experimental setup: read-out: Cytotoxicity IC90; ET cells, 72 h; concentration inhibiting cell viability by 90%
reported metric: IC90 (µM)

C/C=C/C[C@@H](C)[C@@H](O)[C@H]1C(=O)N[C@@H](CC)C(=O)N(C)[C@H](OCCN)C(=O)N(C)[C@@H](CC(C)C)C(=O)N[C@@H](C(C)C)C(=O)N(C)[C@@H](CC(C)C)C(=O)N[C@@H](C)C(=O)N[C@H](C)C(=O)N(C)[C@@H](CC(C)C)C(=O)N(C)[C@@H](CC(C)C)C(=O)N(C)[C@@H](C(C)C)C(=O)N1C : 20.3

###

# Test system: human hepatoma cell line ET
# assay notes: Cytotoxicity in the replicon cell line, colorimetric assay of cell numbers
# experimental setup: read-out: Cytotoxicity IC50; ET cells, 72 h; concentration inhibiting cell viability by 50%
reported metric: IC50 (µM)

C/C=C/C[C@@H](C)[C@@H](O)[C@H]1C(=O)N[C@@H](CC)C(=O)N(C)[C@H](SCCOC)C(=O)N(C)[C@@H](CC(C)C)C(=O)N[C@@H](C(C)C)C(=O)N(C)[C@@H](CC(C)C)C(=O)N[C@@H](C)C(=O)N[C@H](C)C(=O)N(C)[C@@H](CC(C)C)C(=O)N(C)[C@@H](CC(C)C)C(=O)N(C)[C@@H](C(C)C)C(=O)N1C [R, 3-[(2-methoxy)ethylthio]cyclosporin] : 11.1
C/C=C/C[C@@H](C)[C@@H](O)[C@H]1C(=O)N[C@@H](CC)C(=O)N(C)[C@H](OCCN)C(=O)N(C)[C@@H](CC(C)C)C(=O)N[C@@H](C(C)C)C(=O)N(C)[C@@H](CC(C)C)C(=O)N[C@@H](C)C(=O)N[C@H](C)C(=O)N(C)[C@@H](CC(C)C)C(=O)N(C)[C@@H](CC(C)C)C(=O)N(C)[C@@H](C(C)C)C(=O)N1C : 6.31

###

Listed next: entries and their corresponding IC90.
# System: human hepatoma cell line ET
# assay notes: Cytotoxicity in the replicon cell line, colorimetric assay of cell numbers
# experimental setup: read-out: Cytotoxicity IC90; ET cells, 72 h; concentration inhibiting cell viability by 90%
reported metric: IC90

C/C=C/C[C@@H](C)[C@@H](O)[C@H]1C(=O)N[C@@H](CC)C(=O)N(C)[C@H](SCCOC)C(=O)N(C)[C@@H](CC(C)C)C(=O)N[C@@H](C(C)C)C(=O)N(C)[C@@H](CC(C)C)C(=O)N[C@@H](C)C(=O)N[C@H](C)C(=O)N(C)[C@@H](CC(C)C)C(=O)N(C)[C@@H](CC(C)C)C(=O)N(C)[C@@H](C(C)C)C(=O)N1C [R, 3-[(2-methoxy)ethylthio]cyclosporin] : > 20000 nM
C/C=C/C[C@@H](C)[C@@H](O)[C@H]1C(=O)N[C@@H](CC)C(=O)N(C)C(OC)C(=O)N(C)[C@@H](CC(C)C)C(=O)N[C@@H](C(C)C)C(=O)N(C)[C@@H](CC(C)C)C(=O)N[C@@H](C)C(=O)N[C@H](C)C(=O)N(C)[C@@H](CC(C)C)C(=O)N(C)[C@@H](CC(C)C)C(=O)N(C)[C@@H](C(C)C)C(=O)N1C (stereo partly drawn) [A, 3-methoxycyclosporin] : > 3000 nM
C/C=C/C[C@@H](C)[C@@H](O)[C@H]1C(=O)N[C@@H](CC)C(=O)N(C)[C@H](OCCCOC)C(=O)N(C)[C@@H](CC(C)(C)O)C(=O)N[C@@H](C(C)C)C(=O)N(C)[C@@H](CC(C)C)C(=O)N[C@@H](C)C(=O)N[C@H](C)C(=O)N(C)[C@@H](CC(C)C)C(=O)N(C)[C@@H](CC(C)C)C(=O)N(C)[C@@H](C(C)C)C(=O)N1C [Y] : > 2000 nM

###

Entries annotated with measured IC90
# System: human hepatoma cell line ET
# assay notes: Cytotoxicity in the replicon cell line, colorimetric assay of cell numbers
# experimental setup: read-out: Cytotoxicity IC90; ET cells, 72 h; concentration inhibiting cell viability by 90%
reported metric: IC90

C/C=C/C[C@@H](C)[C@@H](O)[C@H]1C(=O)N[C@@H](CC)C(=O)N(C)[C@H](OCCN2CCOCC2)C(=O)N(C)[C@@H](CC(C)C)C(=O)N[C@@H](C(C)C)C(=O)N(C)[C@@H](CC(C)C)C(=O)N[C@@H](C)C(=O)N[C@H](C)C(=O)N(C)[C@@H](CC(C)C)C(=O)N(C)[C@@H](CC(C)C)C(=O)N(C)[C@@H](C(C)C)C(=O)N1C : > 20 µM
C/C=C/C[C@@H](C)[C@@H](O)[C@H]1C(=O)N[C@@H](CC)C(=O)N(C)C(OCCOC)C(=O)N(C)[C@@H](CC(C)(C)O)C(=O)N[C@@H](C(C)C)C(=O)N(C)[C@@H](CC(C)C)C(=O)N[C@@H](C)C(=O)N[C@H](C)C(=O)N(C)[C@@H](CC(C)C)C(=O)N(C)[C@@H](CC(C)C)C(=O)N(C)[C@@H](C(C)C)C(=O)N1C (stereo partly drawn) : > 2 µM
C=CCS[C@@H]1C(=O)N(C)[C@@H](CC(C)C)C(=O)N[C@@H](C(C)C)C(=O)N(C)[C@@H](CC(C)C)C(=O)N[C@@H](C)C(=O)N[C@H](C)C(=O)N(C)[C@@H](CC(C)C)C(=O)N(C)[C@@H](CC(C)C)C(=O)N(C)[C@@H](C(C)C)C(=O)N(C)[C@@H]([C@H](O)[C@H](C)C/C=C/C)C(=O)N[C@@H](CC)C(=O)N1C : > 20 µM

###

# Tested on: human hepatoma cell line ET
# assay notes: Cytotoxicity in the replicon cell line, colorimetric assay of cell numbers
# experimental setup: read-out: Cytotoxicity IC50; ET cells, 72 h; concentration inhibiting cell viability by 50%
pIC50: −log10 of the molar value. Where a name gives a salt, the structure may show the parent alone.
Each item that follows carries a reported pIC50.
reported metric: pIC50

CC=CCC(C)C(O)C1C(=O)NC(CC)C(=O)N(C)C(SCCN(C)C)C(=O)N(C)C(CC(C)(C)O)C(=O)NC(C(C)C)C(=O)N(C)C(CC(C)C)C(=O)NC(C)C(=O)NC(C)C(=O)N(C)C(CC(C)C)C(=O)N(C)C(CC(C)C)C(=O)N(C)C(C(C)C)C(=O)N1C (stereo not drawn) [hydrochloride] : < 5.70
C/C=C/C[C@@H](C)[C@@H](O)[C@H]1C(=O)N[C@@H](CC)C(=O)N(C)[C@H](OCC(C)(C)C)C(=O)N(C)[C@@H](CC(C)C)C(=O)N[C@@H](C(C)C)C(=O)N(C)[C@@H](CC(C)C)C(=O)N[C@@H](C)C(=O)N[C@H](C)C(=O)N(C)[C@@H](CC(C)C)C(=O)N(C)[C@@H](CC(C)C)C(=O)N(C)[C@@H](C(C)C)C(=O)N1C : < 4.70
CC=CCC(C)C(O)C1C(=O)NC(CC)C(=O)N(C)C(OCC(CC)CC)C(=O)N(C)C(CC(C)C)C(=O)NC(C(C)C)C(=O)N(C)C(CC(C)C)C(=O)NC(C)C(=O)NC(C)C(=O)N(C)C(CC(C)C)C(=O)N(C)C(CC(C)C)C(=O)N(C)C(C(C)C)C(=O)N1C (stereo not drawn) : 4.81
